System: DNA-PK (Homo sapiens (Human), UniProt P78527)
Assay method text: DNA-PK assay (biochemical), flashplate 33P-ATP kinase assay
Test settings: biochemical DNA-PK assay
pIC50: −log10 of the molar value.
Collected pIC50 values appear next to each entry.
Parameter: pIC50

Molecule: OC(c1cc(-c2ncnc3cc(N4CCOCC4)ccc23)ccc1Cl)c1nccn2cccc12 (stereo not drawn)
System: DNA-PK (Homo sapiens (Human), UniProt P78527)
Value measured: 8.15 to 8.52

Molecule: COc1nccnc1C(C(N)=O)c1cc(-c2ncnc3cc(N4CCOCC4)ccc23)ccc1Cl (stereo not drawn)
System: DNA-PK (Homo sapiens (Human), UniProt P78527)
Value measured: 7.52 to 8.15

Molecule: Cc1cc(C(O)c2cc(-c3ncnc4cc(N5CCOCC5)ccc34)c(F)cc2Cl)n(C)c(=O)c1 (stereo not drawn)
System: DNA-PK (Homo sapiens (Human), UniProt P78527)
Value measured: 7.52 to 8.15

* * *

System: DNA-PK (Homo sapiens (Human), UniProt P78527)
Assay method text: DNA-PK assay (biochemical), flashplate 33P-ATP kinase assay
Test settings: biochemical DNA-PK assay
Protocol: A) DNA-PK Assay (Biochemical) The kinase assay was carried out in streptavidin-coated […] microtitre flashplates. […] The reaction was stopped using 50 μl/well of 200 mM EDTA. After incubation for a further 30 min at room temperature, the liquid was removed. […] A nonspecific reaction (blank value) was determined using 10 μM of an innate kinase inhibitor. The radioactivity measurement was carried out using a TopCount. IC50 values were calculated in RS1.
Collected IC50 values appear next to each entry.

Compound: Cn1ncc2c(C(O)c3cc(-c4ncnc5cc(N6CCOCC6)ccc45)c(F)cc3F)ncnc21 (stereo not shown)
IC50: 3 to 7 nM

Compound: Cc1nccnc1C(C(N)=O)c1ccc(F)c(-c2ncnc3cc(N4CCOCC4)ccc23)c1 (stereo not shown)
IC50: 7 to 30 nM

Compound: Cc1cnc(C(O)c2ccc(F)c(-c3ncnc4cc(N5CCOCC5)ccc34)c2)c(C)n1 (stereo not shown)
IC50: < 3 nM

Compound: Cn1c(C(O)c2cc(-c3ncnc4cc(N5CCOCC5)ccc34)ccc2F)cccc1=O (stereo not shown) [Example 365]
IC50: 3 to 7 nM

Compound: COc1nccnc1C(O)c1cc(-c2ncnc3cc(N4CCOCC4)ccc23)c(F)cc1F (stereo not shown) [Example 453]
IC50: 3 to 7 nM

Compound: Cc1nccnc1C(O)c1ccc(F)c(-c2ncnc3cc(N4CCOCC4)sc23)c1 (stereo not shown) [Example 265]
IC50: < 3 nM

Compound: OC(c1cc(-c2ncnc3cc(N4CCOCC4)ccc23)c(F)cc1Cl)c1nccn2ccnc12 (stereo not shown) [Example 397]
IC50: 3 to 7 nM

Compound: COc1nccnc1C(O)c1cc(-c2ncnc3cc(N4CCOCC4)ccc23)ccc1Cl (stereo not shown) [Example 410]
IC50: < 3 nM

Compound: Cc1cc(C(C(N)=O)c2cc(-c3ncnc4cc(N5CCOCC5)ccc34)c(F)cc2Cl)n(C)c(=O)c1 (stereo not shown)
IC50: > 30 nM

Compound: OC(c1ccc(F)c(-c2ncnc3cc(N4CCOCC4)ccc23)c1)c1ncnc2ccoc12 (stereo not shown) [Example 442]
IC50: < 3 nM

Compound: Cc1nccnc1C(O)c1ccc(F)c(-c2ncnc3cc(N4CCOCC4)sc23)c1 (stereo not shown) [Example 245]
IC50: < 3 nM

Compound: [2H]C1([2H])OC([2H])([2H])C([2H])([2H])N(c2ccc3c(-c4cc(C(O)c5nccnc5OC)c(Cl)cc4F)ncnc3c2)C1([2H])[2H] (stereo not shown) [Example 241]
IC50: < 3 nM

Compound: OC(c1ccc(F)c(-c2ncnc3cc(N4CCOCC4)ccc23)c1)c1nccn2cnnc12 (stereo not shown)
IC50: 7 to 30 nM

Compound: Cc1nccnc1C(C(N)=O)c1cc(-c2ncnc3cc(N4CCOCC4)ccc23)ccc1Cl (stereo not shown)
IC50: 7 to 30 nM

Compound: CN1N=C(C(O)c2cc(-c3ncnc4cc(N5CCOCC5)ccc34)c(F)cc2Cl)CCC1=O (stereo not shown)
IC50: 7 to 30 nM

Compound: Cn1c(C(O)c2cc(-c3ncnc4cc(N5CCOCC5)ccc34)ccc2Cl)cccc1=O (single isomer, unassigned) [Example 364]
IC50: < 3 nM

* * *

Collected IC50 values appear next to each entry.
System: DNA-PK phosphorylation at serine 2056 (Homo sapiens (Human))
Assay method text: DNA-PK phosphorylation at serine 2056 (cellular), bleomycin-treated HCT116 cells, ELISA
Type: cell-based
Test settings: cellular DNA-PK phosphorylation at serine 2056, HCT116; read-out: IC50 pDNA-PK

Compound: OC(c1ccc(F)c(-c2ncnc3cc(N4CCOCC4)ccc23)c1)c1nccn2ncnc12 (stereo not shown)
IC50: 5 to 10 µM

Compound: Cc1nccnc1[C@@H](O)c1ccc(F)c(-c2ncnc3cc(N4CCOCC4)cnc23)c1
IC50: 10 to 30 µM

Compound: OC(c1ccc(F)c(-c2ncnc3cc(N4CCOCC4)ccc23)c1)c1nccn2cnnc12 (stereo not shown)
IC50: 10 to 30 µM

Compound: Cn1c(C(O)c2cc(-c3ncnc4cc(N5CCOCC5)ccc34)ccc2F)cccc1=O (stereo not shown) [Example 366]
IC50: 5 to 10 µM

* * *

Collected IC50 values appear next to each entry.
System: DNA-PK (Homo sapiens (Human))
Assay method text: DNA-PK assay (biochemical), flashplate 33P-ATP kinase assay
Test settings: biochemical DNA-PK assay

Compound: OC(c1cc(-c2ncnc3cc(N4CCOCC4)ccc23)ccc1F)c1ncnc2sccc12 (stereo not drawn)
IC50: < 3 nM
--
Compound: Cn1cnc2ncnc(C(O)c3cc(-c4ncnc5cc(N6CCOCC6)ccc45)c(F)cc3F)c21 (stereo not drawn) [Example 431]
IC50: 7 to 30 nM
--
Compound: COc1nccnc1C(C(N)=O)c1cc(-c2ncnc3cc(N4CCOCC4)ccc23)c(F)cc1Cl (stereo not drawn)
IC50: 7 to 30 nM
--
Compound: Cc1nccnc1C(O)c1ccc(F)c(-c2ncnc3cc(N4CCOCC4)cc(F)c23)c1 (stereo not drawn)
IC50: < 3 nM
--
Compound: OC(c1cc(-c2ncnc3cc(N4CCOCC4)ccc23)c(F)cc1F)c1nccn2cccc12 (stereo not drawn)
IC50: < 3 nM
--
Compound: OC(c1cc(-c2ncnc3cc(N4CCOCC4)ccc23)c(F)cc1Cl)c1nccn2ccnc12 (single isomer, unassigned) [Example 396]
IC50: 3 to 7 nM
--
Compound: COc1nccnc1C(O)c1ccc(F)c(-c2ncnc3cc(N4CCOCC4)cc(F)c23)c1 (single isomer, unassigned) [Example 253]
IC50: 7 to 30 nM
--
Compound: NC(=O)C(c1cccnc1)c1cc(-c2ncnc3cc(N4CCOCC4)ccc23)c(F)cc1Cl (stereo not drawn)
IC50: 3 to 7 nM
--
Compound: OC(c1ccc(F)c(-c2ncnc3cc(N4CCOCC4)ccc23)c1)c1nccn2ncnc12 (stereo not drawn)
IC50: 3 to 7 nM
--
Compound: Cn1cnc2c(C(O)c3cc(-c4ncnc5cc(N6CCOCC6)ccc45)c(F)cc3F)ncnc21 (stereo not drawn) [Example 346]
IC50: 7 to 30 nM
--
Compound: OC(c1cccnn1)c1cc(-c2ncnc3cc(N4CCOCC4)ccc23)ccc1Cl (single isomer, unassigned) [Example 469]
IC50: > 30 nM
--
Compound: [2H]C1([2H])OC([2H])([2H])C([2H])([2H])N(c2ccc3c(-c4cc([C@H](O)c5nccnc5C)ccc4F)ncnc3c2)C1([2H])[2H]
IC50: 7 to 30 nM
--
Compound: Cc1nccnc1[C@H](O)c1ccc(F)c(-c2ncnc3cc(N4CCOCC4)cc(F)c23)c1
IC50: < 3 nM
--
Compound: Fc1cc(Cl)c(Cc2ccc3nccn3n2)cc1-c1ncnc2cc(N3CCOCC3)ccc12
IC50: < 3 nM
--
Compound: NC(=O)C(c1cccnn1)c1cc(-c2ncnc3cc(N4CCOCC4)ccc23)c(F)cc1Cl (stereo not drawn)
IC50: 7 to 30 nM

* * *

System: DNA-PK (Homo sapiens (Human), UniProt P78527)
Assay method text: DNA-PK assay (biochemical), flashplate 33P-ATP kinase assay
Test settings: biochemical DNA-PK assay
pIC50: −log10 of the molar value.
Parameter: pIC50

Molecule: Cn1c(C(O)c2cc(-c3ncnc4cc(N5CCOCC5)ccc34)ccc2F)cccc1=O (stereo not shown) [Example 366]
Value measured: 7.52 to 8.15
//
Molecule: Cn1ncc2c(C(O)c3cc(-c4ncnc5cc(N6CCOCC6)ccc45)ccc3Cl)ncnc21 (stereo not shown)
Value measured: 7.52 to 8.15
//
Molecule: [2H]C1([2H])OC([2H])([2H])C([2H])([2H])N(c2ccc3c(-c4cc(C(O)c5nccnc5C)ccc4F)ncnc3c2)C1([2H])[2H] (stereo not shown) [Example 238]
Value measured: > 8.52
//
Molecule: COc1cnc(C(O)c2ccc(F)c(-c3ncnc4cc(N5CCOCC5)ccc34)c2)c(Br)c1 (stereo not shown)
Value measured: 8.15 to 8.52
//
Molecule: NC(=O)C(c1ccc2nccn2n1)c1cc(-c2ncnc3cc(N4CCOCC4)ccc23)c(F)cc1Cl (stereo not shown)
Value measured: 8.15 to 8.52
//
Molecule: OC(c1ccc(F)c(-c2ncnc3cc(N4CCOCC4)ccc23)c1)c1nncc2sccc12 (stereo not shown)
Value measured: > 8.52
//
Molecule: OC(c1cn2ccsc2n1)c1cc(-c2ncnc3cc(N4CCOCC4)ccc23)c(F)cc1F (stereo not shown)
Value measured: < 7.52

Each recorded value in this set is attributed to patent US9732094B2.
